Answer each item with its documented normalised indicator fluorescence.
# Tested on: hsa-mir-21 loop
# ASSAY REMARKS: normalised indicator fluorescence (fraction of RNA + indicator signal without compound); higher = less displacement of indicator (weaker competition)
# CONDITION: compound concentration: 5 uM; 30 min; indicator: TO-PRO-1 0.1 uM; RNA concentration: 0.1 uM
Counter-ions that a name gives are not always drawn.
// return just the number, without any unit appended

Please look at this compound and report its normalised indicator fluorescence: `COc1ccc([C@@H]2OC[C@H]3[C@@H]2CO[C@@H]3c2ccc(O[C@@H]3O[C@H](CO)[C@@H](O)[C@H](O)[C@H]3O)c(OC)c2)cc1OC`
0.926

Please look at this compound and report its normalised indicator fluorescence: `Cc1c(F)cc(C(=O)NC2CC2)cc1-c1ccc(C(=O)NCC(C)(C)C)cn1`
0.887

Please look at this compound and report its normalised indicator fluorescence: `NC(=O)c1ccccc1Nc1ccnc(Nc2cccc(O)c2)n1`
0.974

Please look at this compound and report its normalised indicator fluorescence: `CO[C@H]1/C=C/O[C@@]2(C)Oc3c(C)c(O)c4c(c3C2=O)C2=NC3(CCN(CC(C)C)CC3)NC2=C(NC(=O)/C(C)=C\C=C\[C@H](C)[C@H](O)[C@@H](C)[C@@H](O)[C@@H](C)[C@H](OC(C)=O)[C@@H]1C)C4=O`
1.03

Please look at this compound and report its normalised indicator fluorescence: `CCNC(=O)c1noc(-c2cc(C(C)C)c(O)cc2O)c1-c1ccc(CN2CCOCC2)cc1`
1.03

Please look at this compound and report its normalised indicator fluorescence: COc1nccnc1NS(=O)(=O)c1ccc(NC(=O)/C=C/c2ccc([N+](=O)[O-])s2)cc1 [Necrosulfonamide]
0.985

Please look at this compound and report its normalised indicator fluorescence: `COC(=O)C1=CC[C@@]23CC[C@@H]([C@@](C)(/C=C/C=C(\C)C(=O)O)OC2=O)[C@@]3(OC(C)=O)CC1`
1.02

Please look at this compound and report its normalised indicator fluorescence: `NC(=O)N/N=C/c1ccc([N+](=O)[O-])o1`
0.909

Please look at this compound and report its normalised indicator fluorescence: N#CC(c1ccnc(OCc2ccc(CN3CCOCC3)cc2)n1)c1nc2ccccc2s1 (centres undefined)
1.14

Please look at this compound and report its normalised indicator fluorescence: `COC1=C2C[C@@H](C)C[C@H](OC)[C@H](O)[C@@H](C)/C=C(\C)[C@H](OC(N)=O)[C@@H](OC)/C=C\C=C(/C)C(=O)NC(=CC1=O)C2=O`
1.04

Please look at this compound and report its normalised indicator fluorescence: `Nc1ncnc2c1ncn2[C@@H]1O[C@H](CO)[C@@H](O)[C@@H]1O`
1.03

Please look at this compound and report its normalised indicator fluorescence: `Fc1ccc(-c2nc3n(c2-c2ccncc2)CCS3)cc1`
0.993

Please look at this compound and report its normalised indicator fluorescence: `O=C1CCc2ccccc2C1`
1.05

Please look at this compound and report its normalised indicator fluorescence: CC(=O)O[C@H]1C[C@@]2(C)[C@@H](C[C@@H](O)[C@H]3[C@@]4(C)CC[C@@H](O)[C@@H](C)[C@@H]4CC[C@@]32C)/C1=C(\CCC=C(C)C)C(=O)O [Fusidine]
0.976

Please look at this compound and report its normalised indicator fluorescence: `Cc1cc(C(C)(C)C)c(O)c(C(C)(C)C)c1`
1.04

Please look at this compound and report its normalised indicator fluorescence: `CN1CCN(c2ccc(C(=O)Nc3n[nH]c4ccc(Cc5cc(F)cc(F)c5)cc34)c(NC3CCOCC3)c2)CC1`
1.04

Please look at this compound and report its normalised indicator fluorescence: N=C(NCCCCCCNC(=N)NC(=N)Nc1ccc(Cl)cc1)NC(=N)Nc1ccc(Cl)cc1 [Chlorhexidine hydrochloride]
0.896

Please look at this compound and report its normalised indicator fluorescence: `C[C@H]1Oc2cc(cnc2N)-c2c(nn(C)c2C#N)CN(C)C(=O)c2ccc(F)cc21`
1.05

Please look at this compound and report its normalised indicator fluorescence: C[C@H]1[C@H](C)CC[C@]2(C(=O)O[C@@H]3O[C@H](CO[C@@H]4O[C@H](CO)[C@@H](O[C@@H]5O[C@H](C)[C@H](O)[C@@H](O)[C@H]5O)[C@H](O)[C@H]4O)[C@@H](O)[C@H](O)[C@H]3O)CC[C@]3(C)C(=CC[C@@H]4[C@@]5(C)C[C@@H](O)[C@H](O)[C@@](C)(CO)[C@@H]5CC[C@]43C)[C@H]12 [Asiaticoside]
0.968

Please look at this compound and report its normalised indicator fluorescence: `C/C1=C/CC[C@H](C)C(=O)C[C@@H](C(C)C)C(=O)C1`
1.04

Please look at this compound and report its normalised indicator fluorescence: `CC1(C)C=Cc2c(ccc3c2OC[C@@H](c2ccc(O)cc2O)C3)O1`
1.05

Please look at this compound and report its normalised indicator fluorescence: `COc1nc(-c2ccc3c(c2)OCO3)n(-c2ccc(NC(=O)CSc3ccccc3)cc2)n1`
0.961

Please look at this compound and report its normalised indicator fluorescence: CC(=O)O[C@H]1C[C@@]2(C)[C@@H](C[C@@H](O)[C@H]3[C@@]4(C)CC[C@@H](O)[C@@H](C)[C@@H]4CC[C@@]32C)/C1=C(\CCC=C(C)C)C(=O)O [Sodium fusidate]
0.986

Please look at this compound and report its normalised indicator fluorescence: `O=C(Nc1ccc2[nH]nc(-c3ccncc3)c2c1)[C@@H]1CCN(CC(=O)N2CCN(c3ccc(-c4ncccn4)cc3)CC2)C1`
1.02

Please look at this compound and report its normalised indicator fluorescence: `COc1ccc(-c2coc3cc(O)ccc3c2=O)cc1O`
1

Please look at this compound and report its normalised indicator fluorescence: `O=c1cc(-c2ccccc2)oc2cc(O)c(O)c(O)c12`
0.653

Please look at this compound and report its normalised indicator fluorescence: Oc1ccc(OC2CCCCO2)cc1 (centres undefined)
1.03

Please look at this compound and report its normalised indicator fluorescence: `O=c1ncn2nc(Sc3ccc(F)cc3F)ccc2c1-c1c(Cl)cccc1Cl`
0.973

Please look at this compound and report its normalised indicator fluorescence: `O=[N+]([O-])c1ccc(-c2nc(-c3ccc(F)cc3)c(-c3ccncc3)[nH]2)cc1`
0.973

The measured values listed here are drawn from the supplement of paper PMC11865577.
